Data provenance is patent US12606568B2.

Biological target: SMARCA2 (Homo sapiens, UniProt P51531)
Sequence (P51531 whole entry): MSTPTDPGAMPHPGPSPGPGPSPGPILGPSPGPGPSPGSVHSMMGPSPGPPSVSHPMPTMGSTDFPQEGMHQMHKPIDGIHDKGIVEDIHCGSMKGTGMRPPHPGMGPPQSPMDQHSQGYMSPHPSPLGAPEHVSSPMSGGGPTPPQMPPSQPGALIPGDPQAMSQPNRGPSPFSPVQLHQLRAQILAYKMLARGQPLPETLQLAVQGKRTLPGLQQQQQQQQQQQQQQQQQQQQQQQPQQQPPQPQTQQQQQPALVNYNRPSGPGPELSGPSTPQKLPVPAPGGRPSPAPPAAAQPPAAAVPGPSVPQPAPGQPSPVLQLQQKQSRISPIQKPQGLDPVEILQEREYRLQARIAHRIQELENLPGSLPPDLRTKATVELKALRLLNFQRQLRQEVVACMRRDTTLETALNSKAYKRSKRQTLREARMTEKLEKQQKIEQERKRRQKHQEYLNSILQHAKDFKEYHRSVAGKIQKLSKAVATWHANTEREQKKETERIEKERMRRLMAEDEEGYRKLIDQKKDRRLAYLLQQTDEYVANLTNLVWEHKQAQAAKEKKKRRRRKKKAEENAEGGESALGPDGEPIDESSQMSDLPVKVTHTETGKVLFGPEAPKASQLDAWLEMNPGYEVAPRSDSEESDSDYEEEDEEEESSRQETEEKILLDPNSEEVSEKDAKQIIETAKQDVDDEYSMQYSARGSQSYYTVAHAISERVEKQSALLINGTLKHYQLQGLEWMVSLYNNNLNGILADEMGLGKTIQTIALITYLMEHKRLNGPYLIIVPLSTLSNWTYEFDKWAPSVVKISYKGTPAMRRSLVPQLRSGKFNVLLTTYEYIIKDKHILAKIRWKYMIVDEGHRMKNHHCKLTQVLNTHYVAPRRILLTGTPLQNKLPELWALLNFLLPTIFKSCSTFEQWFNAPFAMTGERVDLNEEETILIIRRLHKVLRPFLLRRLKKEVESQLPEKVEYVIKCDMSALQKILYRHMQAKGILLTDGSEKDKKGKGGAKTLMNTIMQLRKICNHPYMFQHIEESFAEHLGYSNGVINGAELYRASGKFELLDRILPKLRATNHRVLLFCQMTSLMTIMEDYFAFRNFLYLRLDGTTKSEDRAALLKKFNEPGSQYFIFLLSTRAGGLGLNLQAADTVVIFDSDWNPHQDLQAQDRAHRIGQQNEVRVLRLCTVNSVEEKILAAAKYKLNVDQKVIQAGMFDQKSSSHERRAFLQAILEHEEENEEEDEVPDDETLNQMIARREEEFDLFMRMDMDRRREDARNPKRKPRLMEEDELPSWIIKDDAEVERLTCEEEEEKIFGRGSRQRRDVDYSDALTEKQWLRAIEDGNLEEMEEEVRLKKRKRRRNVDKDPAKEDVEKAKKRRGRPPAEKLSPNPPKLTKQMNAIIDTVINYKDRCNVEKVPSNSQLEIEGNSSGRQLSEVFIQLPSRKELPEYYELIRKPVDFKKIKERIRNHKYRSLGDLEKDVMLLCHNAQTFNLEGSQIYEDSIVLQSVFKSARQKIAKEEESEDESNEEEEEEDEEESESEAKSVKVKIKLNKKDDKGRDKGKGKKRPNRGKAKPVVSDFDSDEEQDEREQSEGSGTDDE
Assay: MSD SMARCA2 degradation in A549 cell line
Type: cell-based
Design: endogenous in cells
Details: A549 cells, 24 h, read-out: SMARCA2 MSD A549 degradation 24 h: Average external-Abs DC50
Readout Name: DC50

Recorded DC50, per entry:
Cc1ncsc1-c1cnc(CNC(=O)[C@@H]2C[C@@H](O)CN2C(=O)[C@@H](NC(=O)[C@H]2CC3(C2)C[C@H](N2CCC(c4ccc(N5C6CCC5CN(c5cc(-c7ccccc7O)nnc5N)C6)cc4)CC2)C3)C(C)(C)C)nc1 (stereo partly drawn) [I-25]    > 1000 nM
Cc1ncsc1-c1ccc(CNC(=O)[C@@H]2C[C@@H](O)CN2C(=O)C(c2cc([C@H]3CC[C@@H](N4CCC(c5cnc(N6C7CCC6CN(c6cc(-c8ccccc8O)nnc6N)C7)nc5)CC4)CC3)no2)C(C)C)cc1 (stereo partly drawn)    < 100 nM
Cc1ncsc1-c1ccc(CNC(=O)[C@@H]2C[C@@H](O)CN2C(=O)[C@@H](NC(=O)[C@H]2CC3(C2)C[C@H](N2CCC(c4ccc(N5C6CCC5CN(c5cc(-c7ccccc7O)nnc5N)C6)cc4)CC2)C3)C(C)(C)C)cn1 (stereo partly drawn) [I-27]    > 1000 nM
Cc1ncsc1-c1ccc(CNC(=O)[C@@H]2C[C@@H](O)CN2C(=O)[C@@H](NC(=O)[C@H]2CC3(C2)C[C@H](N2CCN(c4cnc(N5C6CCC5CN(c5cc(-c7ccccc7O)nnc5N)C6)nc4)CC2)C3)C(C)(C)C)cc1 (single isomer, unassigned) [I-8]    < 100 nM
Cc1ncsc1-c1ccc(CNC(=O)[C@@H]2C[C@@H](O)CN2C(=O)[C@@H](NC(=O)[C@H]2CC3(C2)C[C@H](N2CCC(c4ccc(N5C6CCC5CN(c5cc(-c7ccccc7O)nnc5N)C6)cc4)CC2)C3)C(C)(C)C)cn1 (stereo partly drawn) [I-28]    > 1000 nM

(Q) Write down DC50 measured for item Cc1ncsc1-c1ccc(CNC(=O)[C@@H]2C[C@@H](O)CN2C(=O)[C@@H](NC(=O)C2CC3(C2)CC(N2CCC(Oc4cc(N5C6CCC5CN(c5cc(-c7ccccc7O)nnc5N)C6)ccn4)CC2)C3)C(C)(C)C)cc1 (stereo partly drawn)
(A) > 1000 nM

(Q) Write down DC50 measured for item Cc1ncsc1-c1cnc(CNC(=O)[C@@H]2C[C@@H](O)CN2C(=O)[C@@H](NC(=O)[C@H]2CC3(C2)C[C@H](N2CCC(c4ccc(N5C6CCC5CN(c5cc(-c7ccccc7O)nnc5N)C6)cc4)CC2)C3)C(C)(C)C)nc1 (stereo partly drawn) [I-26]
(A) > 1000 nM

(Q) Write down DC50 measured for item Cc1ncsc1-c1ccc(CNC(=O)[C@@H]2C[C@@H](O)CN2C(=O)[C@@H](NC(=O)[C@H]2CC3(CC[C@H](N4CCC(c5cnc(N6C7CCC6CN(c6cc(-c8ccccc8O)nnc6N)C7)nc5)CC4)CC3)C2)C(C)(C)C)cc1 (stereo partly drawn) [I-13]
(A) < 100 nM

(Q) Write down DC50 measured for item `Cc1ncsc1-c1ccc(CNC(=O)[C@@H]2C[C@@H](O)CN2C(=O)[C@@H](NC(=O)N2CCC(N3CCC(c4cnc(N5C6CCC5CN(c5cc(-c7ccccc7O)nnc5N)C6)nc4)CC3)CC2)C(C)(C)C)cc1`
(A) > 1000 nM
